- systemUnderTest: Recombinant human GR (Homo sapiens, UniProt P04150)
- Construct: purchased Invitrogen P2816
- Sequence (P04150 whole entry): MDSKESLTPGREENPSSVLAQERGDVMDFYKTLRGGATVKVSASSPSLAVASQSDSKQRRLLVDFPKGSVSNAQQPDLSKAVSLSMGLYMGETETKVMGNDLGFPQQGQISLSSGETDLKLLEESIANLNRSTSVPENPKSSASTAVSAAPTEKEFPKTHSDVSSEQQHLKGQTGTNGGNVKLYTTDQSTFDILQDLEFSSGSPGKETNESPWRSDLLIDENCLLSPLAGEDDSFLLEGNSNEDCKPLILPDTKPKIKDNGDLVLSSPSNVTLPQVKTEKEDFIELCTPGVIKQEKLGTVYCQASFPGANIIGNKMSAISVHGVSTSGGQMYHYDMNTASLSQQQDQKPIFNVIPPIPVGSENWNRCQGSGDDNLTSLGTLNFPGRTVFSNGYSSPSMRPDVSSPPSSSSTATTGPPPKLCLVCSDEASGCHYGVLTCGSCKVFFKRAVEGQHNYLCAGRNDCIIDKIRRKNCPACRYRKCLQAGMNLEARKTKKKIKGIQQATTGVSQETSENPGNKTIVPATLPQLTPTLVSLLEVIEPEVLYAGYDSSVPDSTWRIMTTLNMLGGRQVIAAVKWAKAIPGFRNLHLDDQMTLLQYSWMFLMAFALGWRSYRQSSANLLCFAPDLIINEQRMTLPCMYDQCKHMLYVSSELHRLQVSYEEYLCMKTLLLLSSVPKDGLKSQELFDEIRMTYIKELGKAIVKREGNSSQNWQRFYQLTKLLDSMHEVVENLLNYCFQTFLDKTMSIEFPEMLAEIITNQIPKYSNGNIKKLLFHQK
- assaySummary: Evaluation test for binding activity to glucocorticoid receptor: receptor competitor assay by fluorescence polarization (Invitrogen GR competitor assay kit, cat No. P2816)
- conditionSet: 20 μM test compound solution, 10 μL per well plus 5 μL 4×GS1 and 5 μL 4×GR solution; room temperature 2 to 4 hours; a ratio of 100% or more is indicated by 100%
Field: inhibition at 20 µM (stock). Provide a value for each of the compounds that follow.
Use % as the unit, but write only the number.

Challenge: Which inhibition at 20 µM (stock) reading was recorded for the compound COc1ccccc1NCc1c(-c2ccc(OC(=O)c3ccccc3C)cc2OC)ccc2c1C(C)=CC(C)(C)N2 [Compound 1-5] ?
Response given: 93

Challenge: What about COc1ccccc1NCc1c(-c2ccc(OC(=O)c3ccoc3)cc2OC)ccc2c1C(C)=CC(C)(C)N2 [Compound 1-6] ?
Response given: 97

Challenge: What about COc1cc(OC(=O)N2CCOCC2)ccc1-c1ccc2c(c1CNc1cc(F)ccc1C)C(C)=CC(C)(C)N2 [Compound 1-45] ?
Response given: 100

Challenge: What about COc1ccccc1NCc1c(-c2ccc(OC(=O)c3ccccc3Cl)cc2OC)ccc2c1C(C)=CC(C)(C)N2 [Compound 1-10] ?
Response given: 93

Challenge: What about COc1ccccc1NCc1c(-c2ccc(OC(=O)c3cscn3)cc2OC)ccc2c1C(C)=CC(C)(C)N2 [Compound 1-30] ?
Response given: 94

Challenge: What about COc1ccccc1NCc1c(-c2ccc(OC(=O)c3ccco3)cc2OC)ccc2c1C(C)=CC(C)(C)N2 [Compound 1-1] ?
Response given: 92

Challenge: What about COc1ccccc1NCc1c(-c2ccc(OS(C)(=O)=O)cc2OC)ccc2c1C(C)=CC(C)(C)N2 [Compound 2-5] ?
Response given: 93

Source listed as patent US8580784B2.
